We begin with a simple list: items and their reported pIC50.
Molecular target: Met (phospho-Met, HGF-stimulated PC-3 prostate cancer cells) (Homo sapiens (Human), UniProt P08581)
Sequence (P08581 25-1390): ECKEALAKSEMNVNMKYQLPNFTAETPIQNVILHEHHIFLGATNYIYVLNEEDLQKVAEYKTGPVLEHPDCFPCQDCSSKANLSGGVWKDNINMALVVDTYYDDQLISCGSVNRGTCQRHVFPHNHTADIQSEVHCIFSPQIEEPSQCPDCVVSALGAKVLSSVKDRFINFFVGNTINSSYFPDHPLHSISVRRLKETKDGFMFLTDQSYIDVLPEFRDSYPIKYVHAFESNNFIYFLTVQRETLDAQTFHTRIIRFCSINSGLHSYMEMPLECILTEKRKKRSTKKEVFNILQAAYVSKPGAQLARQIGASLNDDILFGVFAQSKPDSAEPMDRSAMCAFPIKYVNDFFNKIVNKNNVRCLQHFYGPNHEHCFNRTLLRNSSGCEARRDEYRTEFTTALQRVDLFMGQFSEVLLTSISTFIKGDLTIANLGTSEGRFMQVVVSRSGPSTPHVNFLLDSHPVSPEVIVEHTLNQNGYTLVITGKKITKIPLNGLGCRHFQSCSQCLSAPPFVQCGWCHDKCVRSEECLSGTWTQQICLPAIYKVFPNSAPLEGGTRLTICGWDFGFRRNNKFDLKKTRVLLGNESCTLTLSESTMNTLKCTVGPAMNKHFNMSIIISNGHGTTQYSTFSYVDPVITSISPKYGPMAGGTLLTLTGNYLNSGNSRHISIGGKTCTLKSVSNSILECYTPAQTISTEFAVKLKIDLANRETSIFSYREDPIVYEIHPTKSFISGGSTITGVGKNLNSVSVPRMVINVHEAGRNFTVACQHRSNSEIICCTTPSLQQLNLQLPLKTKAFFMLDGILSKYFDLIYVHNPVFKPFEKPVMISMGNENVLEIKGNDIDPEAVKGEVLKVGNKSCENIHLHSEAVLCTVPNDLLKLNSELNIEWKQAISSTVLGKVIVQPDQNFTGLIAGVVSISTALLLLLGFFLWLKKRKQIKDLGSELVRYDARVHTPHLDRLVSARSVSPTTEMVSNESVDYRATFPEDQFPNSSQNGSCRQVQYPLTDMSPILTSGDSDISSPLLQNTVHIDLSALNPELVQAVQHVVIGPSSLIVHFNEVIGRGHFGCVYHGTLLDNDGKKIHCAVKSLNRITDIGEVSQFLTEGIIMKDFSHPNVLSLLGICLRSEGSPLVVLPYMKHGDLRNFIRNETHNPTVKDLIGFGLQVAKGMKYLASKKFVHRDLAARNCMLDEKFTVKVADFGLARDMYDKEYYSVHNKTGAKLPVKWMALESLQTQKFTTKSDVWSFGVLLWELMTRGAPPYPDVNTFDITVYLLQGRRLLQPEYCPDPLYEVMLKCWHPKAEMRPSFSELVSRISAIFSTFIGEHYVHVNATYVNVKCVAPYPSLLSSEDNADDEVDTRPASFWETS
Test: Met autophosphorylation ELISA in PC-3 cells (Example F)
Type: cell-based
Conditions: cellular activity; Met autophosphorylation ELISA in PC-3 cells; read-out: c-Met IC50
pIC50: −log10 of the molar value.

pIC50 lookup needed for COc1cnc2c(Oc3ccc(NC(=O)c4ccnn(-c5ccc(F)cc5C)c4=O)cc3)ccnc2c1 , thanks.
> 7.00

* * *

Biological target: KDR (phospho-KDR, VEGF165-stimulated HUVEC cells) (Homo sapiens (Human))
Sequence (P35968 20-1356): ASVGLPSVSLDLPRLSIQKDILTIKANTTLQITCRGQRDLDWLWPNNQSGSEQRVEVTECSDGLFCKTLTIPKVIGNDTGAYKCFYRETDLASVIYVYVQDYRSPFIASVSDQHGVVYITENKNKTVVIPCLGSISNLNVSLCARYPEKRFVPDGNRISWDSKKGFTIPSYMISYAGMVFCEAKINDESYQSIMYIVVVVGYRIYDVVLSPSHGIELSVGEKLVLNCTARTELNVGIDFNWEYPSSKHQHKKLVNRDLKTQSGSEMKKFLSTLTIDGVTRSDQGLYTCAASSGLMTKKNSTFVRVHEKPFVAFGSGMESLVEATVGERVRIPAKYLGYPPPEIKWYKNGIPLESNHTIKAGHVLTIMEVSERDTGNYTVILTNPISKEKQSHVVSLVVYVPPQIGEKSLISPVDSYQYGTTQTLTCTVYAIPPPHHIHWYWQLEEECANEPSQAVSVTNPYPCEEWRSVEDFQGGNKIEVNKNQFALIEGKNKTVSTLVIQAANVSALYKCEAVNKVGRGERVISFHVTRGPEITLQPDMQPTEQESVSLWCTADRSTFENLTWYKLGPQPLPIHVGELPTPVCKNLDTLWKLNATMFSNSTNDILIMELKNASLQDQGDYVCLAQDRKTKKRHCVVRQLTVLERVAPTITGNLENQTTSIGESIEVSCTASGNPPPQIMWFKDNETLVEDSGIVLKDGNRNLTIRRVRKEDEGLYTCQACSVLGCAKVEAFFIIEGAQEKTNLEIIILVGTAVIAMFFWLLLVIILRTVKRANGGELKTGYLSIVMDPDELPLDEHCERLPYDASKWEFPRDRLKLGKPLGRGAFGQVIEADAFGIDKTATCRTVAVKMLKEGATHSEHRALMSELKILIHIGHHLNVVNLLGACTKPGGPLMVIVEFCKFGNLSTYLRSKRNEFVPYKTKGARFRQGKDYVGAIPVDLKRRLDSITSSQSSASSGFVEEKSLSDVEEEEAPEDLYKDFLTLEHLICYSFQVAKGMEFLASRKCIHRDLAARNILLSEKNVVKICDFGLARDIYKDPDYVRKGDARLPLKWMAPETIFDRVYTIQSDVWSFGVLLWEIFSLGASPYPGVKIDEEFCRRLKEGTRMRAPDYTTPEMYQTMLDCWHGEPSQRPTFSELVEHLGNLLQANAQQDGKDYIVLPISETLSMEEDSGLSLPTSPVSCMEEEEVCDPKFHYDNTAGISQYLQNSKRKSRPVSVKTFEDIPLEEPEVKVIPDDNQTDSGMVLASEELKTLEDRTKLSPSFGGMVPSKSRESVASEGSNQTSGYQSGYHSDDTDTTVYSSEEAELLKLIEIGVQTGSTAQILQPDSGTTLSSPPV
Experiment: KDR autophosphorylation ELISA in HUVEC cells (Example G)
Type: cell-based
Conditions: cellular activity; KDR autophosphorylation ELISA in HUVEC cells
Protocol: Human umbilical vein endothelial cells or HUVEC (Lonza #C2519A) were seeded at 2×10^4 cells/well onto 96-well plates (Corning #3904), in EGM-2 growth medium (Lonza #CC-3162) containing 1% Penicillin Streptomycin (Thermo Fisher #15140-122). […] IC50 values were calculated by nonlinear regression analysis using a 4-parameter logistic curve fit in ActivityBase XE (IDBS).
Structures can show the parent of a compound that is named as a salt.
Measured endpoint: IC50

Examples from the recorded data:
Compound	IC50
Cc1nc2c(Oc3ccc(NC(=O)c4cn(C(C)C)c(C)c(-c5ccc(F)cc5)c4=O)cc3)ccnc2cc1-c1cnn(C(F)F)c1 [Compound 612, hydrochloride]	> 300 nM
COc1cc2nccc(Oc3ccc(NC(=O)c4cn(C)cc(-c5ccc(Cl)cc5)c4=O)cc3F)c2nc1OC [Compound 38, hydrochloride]	< 100 nM
Cc1ncc(C(=O)Nc2ccc(Oc3ccnc4cc(F)cnc34)c(F)c2)c(O)c1-c1ccc(F)cc1	< 100 nM

IC50 lookup needed for Cc1ncc(C(=O)Nc2ccc(Oc3ccnc4ccc(OCCN5CCOCC5)nc34)c(F)c2)c(O)c1-c1ccc(F)cc1 , thanks.
< 100 nM

Ok, now COc1cnc2c(Oc3ccc(NC(=O)c4c(C)nc(C)c(-c5ccc(OC)c(C)c5)c4O)cc3F)ccnc2c1
< 100 nM

* * *

We begin with a simple list: items and their reported IC50.
Molecular target: Human KDR (residues 790-1356) (Homo sapiens (Human), UniProt P35968)
Assay: Human KDR kinase assay, HTRF KinEase (Example B-2)
Format: biochemical
Settings: protocol of Example B-2 (other compounds)

Compound	Target entity	IC50
Cc1c(-c2ccc(F)cc2)c(=O)c(C(=O)Nc2ccc(Oc3ccnc4cc(F)cnc34)c(F)c2)cn1C(C)C [Compound 162]	Human KDR (residues 790-1356) (Homo sapiens (Human), UniProt P35968)	> 300 nM

IC50 lookup needed for CCn1cc(C(=O)Nc2ccc(Oc3ccnc4cc(OC)cnc34)c(F)c2)c(=O)c(-c2ccc(F)cc2)c1 [Compound 170] , thanks.
> 300 nM

Ok, now COc1cc2nccc(Oc3ccc(NC(=O)c4cn(C)cc(-c5c(C)cc(F)cc5C)c4=O)cc3F)c2nc1OC [Compound 268]
> 300 nM

Ok, now COc1cc2nccc(Oc3ccc(NC(=O)c4cnc(C)n(-c5ccc(F)cc5)c4=O)cc3F)c2nc1OC [Compound 97]
< 100 nM

Ok, now COc1cc2nccc(Oc3ccc(NC(=O)c4ccc(C)n(-c5ccc(F)cc5)c4=O)cc3F)c2nc1OC [Compound 254]
< 100 nM

Ok, now COc1cnc2c(Oc3ccc(NC(=O)c4c(C)cc(C)n(-c5ccc(F)cc5)c4=O)cc3F)ccnc2c1 [Compound 280]
< 100 nM

Ok, now Cc1cc(C)n(-c2ccc(F)cc2)c(=O)c1C(=O)Nc1ccc(Oc2ccnc3cccnc23)c(F)c1 [Compound 295]
< 100 nM
